The reported measurements were obtained from ChEMBL document CHEMBL2069243.

# RUN_DESCRIPTION: Drug uptake in rat liver at 10 mg/kg, po at 6 hrs
# Type: ADME, organism-based
# Design: dose 10 mg/kg, route oral
# PROTOCOL_CONDITIONS: read-out: Drug uptake
// class assignment uses concentration at 6 h with these ranges: range A (below 100 ng/g), range B (100 ng/g to below 1000 ng/g), range C (1000 ng/g or more)

Some entries whose results are on file:
Request: Given Cc1nc(N[C@H](C)c2ccc(OC(F)(F)F)cc2)nc(N[C@@H]2C[C@H](CO)[C@@H](O)[C@H]2O)c1-c1nc2cnccc2s1 , name the class its concentration at 6 h places it in.
Result: range C

Request: Given Cc1nc(N[C@@H](C)c2ccccc2)nc(N[C@@H]2C[C@H](CO)[C@@H](O)[C@H]2O)c1-c1nc2cnccc2s1 , name the class its concentration at 6 h places it in.
Result: range A

Request: Given CCCc1nccc2sc(-c3c(C)nc(N[C@H](C)c4ccc(OC(F)(F)F)cc4)nc3N[C@@H]3C[C@H](CO)[C@@H](O)[C@H]3O)nc12 , name the class its concentration at 6 h places it in.
Result: range C

Request: Given Cc1nc(N[C@H](C)c2ccc(OC(F)(F)F)cc2)nc(N[C@@H]2C[C@H](CO)[C@@H](O)[C@H]2O)c1-c1nc2c(C)nccc2s1.Cl , name the class its concentration at 6 h places it in.
Result: range C

Request: Given Cc1cc2sc(-c3c(C)nc(N[C@H](C)c4ccc(OC(F)(F)F)cc4)nc3N[C@@H]3C[C@H](CO)[C@@H](O)[C@H]3O)nc2c(C)n1 , name the class its concentration at 6 h places it in.
Result: range C

Request: Given COc1cc(OC)cc([C@@H](C)Nc2nc(C)c(-c3nc4cnccc4s3)c(N[C@@H]3C[C@H](CO)[C@@H](O)[C@H]3O)n2)c1 , name the class its concentration at 6 h places it in.
Result: range A

---
Request: Given Cc1nc(N(C)C)nc(N[C@@H]2C[C@H](CO)[C@@H](O)[C@H]2O)c1-c1nc2cnccc2s1 , name the class its concentration at 6 h places it in.
Result: range C

Request: Given Cc1nc(N[C@H](C)c2ccc(OC(F)(F)F)cc2)nc(N[C@@H]2C[C@H](CO)[C@@H](O)[C@H]2O)c1-c1nc2c(CC(C)(C)C)nccc2s1 , name the class its concentration at 6 h places it in.
Result: range C

----------
# RUN_DESCRIPTION: Cytotoxicity against human hepatoma cells after 3 days by MTS assay
# Format: cell-based
Consider the following molecules and their measured CC50 at 72 h readings.
Report only the number, with the unit µM understood.

Worked examples, 3 molecules total:
CC50 at 72 h in this record for Cc1nc(N[C@H](C)c2ccccc2OC(F)(F)F)nc(N[C@@H]2C[C@H](CO)[C@@H](O)[C@H]2O)c1-c1nc2cnccc2s1 : 23

CC50 at 72 h in this record for CCOCCNc1nc(C)c(-c2nc3cnccc3s2)c(N[C@@H]2C[C@H](CO)[C@@H](O)[C@H]2O)n1 : 16

CC50 at 72 h in this record for CCc1cc2sc(-c3c(C)nc(N[C@H](C)c4ccc(OC(F)(F)F)cc4)nc3N[C@@H]3C[C@H](CO)[C@@H](O)[C@H]3O)nc2c(CC)n1 : 13

---
CC50 at 72 h in this record for CCCc1nccc2sc(-c3c(C)nc(N[C@H](C)c4ccc(OC(F)(F)F)cc4)nc3N[C@@H]3C[C@H](CO)[C@@H](O)[C@H]3O)nc12 : 13

CC50 at 72 h in this record for COc1cc(OC)cc([C@@H](C)Nc2nc(C)c(-c3nc4cnccc4s3)c(N[C@@H]3C[C@H](CO)[C@@H](O)[C@H]3O)n2)c1 : 25

CC50 at 72 h in this record for Cc1nc(N[C@H](C)c2ccc(OC(F)(F)F)cc2)nc(N[C@@H]2C[C@H](CO)[C@@H](O)[C@H]2O)c1-c1nc2c(CCC#N)nccc2s1 : 12

----------
# RUN_DESCRIPTION: AUC (0 to 24 hrs) in rat at 10 mg/kg, po
# Format: ADME, organism-based
# Parameters: time < 24 hr, dose 10 mg/kg, route oral
# PROTOCOL_CONDITIONS: plasma
Consider the following molecules and their measured AUC(0-t) at 24 h readings.
Report only the number, with the unit µM·h understood.

AUC(0-t) at 24 h in this record for Cc1nc(N[C@H](C)c2ccc(OC(F)(F)F)cc2)nc(N[C@@H]2C[C@H](CO)[C@@H](O)[C@H]2O)c1-c1nc2c(C)nccc2s1.Cl : 1.1

---
AUC(0-t) at 24 h in this record for Cc1nc(N[C@H](C)c2ccc(OC(F)(F)F)cc2)nc(N[C@@H]2C[C@H](CO)[C@@H](O)[C@H]2O)c1-c1nc2c(C3CC3)nccc2s1.Cl : 5.2

----------
# RUN_DESCRIPTION: Oral bioavailability in monkey at 3 mg/kg
# Type: ADME, organism-based, Macaca mulatta
# PROTOCOL_CONDITIONS: rhesus monkey, in vivo
Consider the following compounds and their measured bioavailability readings.
Report only the number, with the unit % understood.

bioavailability in this record for Cc1nc(N[C@H](C)c2ccc(OC(F)(F)F)cc2)nc(N[C@@H]2C[C@H](CO)[C@@H](O)[C@H]2O)c1-c1nc2c(C3CC3)nccc2s1.Cl : 12

Moving on to the next compound.
bioavailability in this record for Cc1nc(N[C@H](C)c2ccc(OC(F)(F)F)cc2)nc(N[C@@H]2C[C@H](CO)[C@@H](O)[C@H]2O)c1-c1nc2c(C)nccc2s1.Cl : 7

----------
Consider the following molecules and their measured EC50 readings.
# Tested on: Hepatitis C virus
# RUN_DESCRIPTION: Antiviral activity against Hepatitis C virus 1b con1 infected in human hepatoma cells assessed as decrease in replicon RNA level after 3 days by RT-PCR analysis
# Assay type: functional, organism-based, Hepacivirus hominis
# PROTOCOL_CONDITIONS: genotype 1b Con1, 72 h

Worked examples, 2 molecules total:
EC50 in this record for CCc1nccc2sc(-c3c(C)nc(N[C@H](C)c4ccc(OC(F)(F)F)cc4)nc3N[C@@H]3C[C@H](CO)[C@@H](O)[C@H]3O)nc12 : 20 nM

EC50 in this record for Cc1cc2sc(-c3c(C)nc(N[C@H](C)c4ccc(OC(F)(F)F)cc4)nc3N[C@@H]3C[C@H](CO)[C@@H](O)[C@H]3O)nc2c(C2CC2)n1 : 703 nM

---
EC50 in this record for Cc1nc(N[C@H](C)c2ccc(OC(F)(F)F)cc2)nc(N[C@@H]2C[C@H](CO)[C@@H](O)[C@H]2O)c1-c1nc2cnccc2s1 : 16 nM

EC50 in this record for CCCc1nccc2sc(-c3c(C)nc(N[C@H](C)c4ccc(OC(F)(F)F)cc4)nc3N[C@@H]3C[C@H](CO)[C@@H](O)[C@H]3O)nc12 : 20 nM

EC50 in this record for Cc1ccc(C2(Nc3nc(C)c(-c4nc5cnccc5s4)c(N[C@@H]4C[C@H](CO)[C@@H](O)[C@H]4O)n3)CC2)cc1 : 3160 nM

EC50 in this record for CCc1cc2sc(-c3c(C)nc(N[C@H](C)c4ccc(OC(F)(F)F)cc4)nc3N[C@@H]3C[C@H](CO)[C@@H](O)[C@H]3O)nc2c(CC)n1 : 69 nM

EC50 in this record for Cc1nc(NCC2CCN(C)CC2)nc(N[C@@H]2C[C@H](CO)[C@@H](O)[C@H]2O)c1-c1nc2cnccc2s1 : 1680 nM

EC50 in this record for Cc1nc(N[C@@H](C)c2ccccc2)nc(N[C@@H]2C[C@H](CO)[C@@H](O)[C@H]2O)c1-c1nc2cnccc2s1 : 222 nM

EC50 in this record for Cc1nc(NCc2c(F)cccc2F)nc(N[C@@H]2C[C@H](CO)[C@@H](O)[C@H]2O)c1-c1nc2cnccc2s1 : 1 nM

EC50 in this record for Cc1nc(NC(C)(C)c2ccccc2)nc(N[C@@H]2C[C@H](CO)[C@@H](O)[C@H]2O)c1-c1nc2cnccc2s1 : 6200 nM

EC50 in this record for Cc1nc(NCC2CC2)nc(N[C@@H]2C[C@H](CO)[C@@H](O)[C@H]2O)c1-c1nc2cnccc2s1 : 8 nM

EC50 in this record for Cc1nc(N[C@H](C)c2ccc(F)cc2)nc(N[C@@H]2C[C@H](CO)[C@@H](O)[C@H]2O)c1-c1nc2cnccc2s1 : 222 nM

----------
# RUN_DESCRIPTION: Drug uptake in rat liver at 10 mg/kg, po at 6 hrs
# Type: ADME, organism-based
# Parameters: dose 10 mg/kg, route oral
# PROTOCOL_CONDITIONS: read-out: Drug uptake
EXPERIMENTAL_ENDPOINT: log10(concentration at 6 h) (log10 of the value in ng/g)
The figures below represent log10 of concentration at 6 h, where concentration at 6 h is stated in ng/g.

log10(concentration at 6 h) in this record for COc1cc(CCNc2nc(C)c(-c3nc4cnccc4s3)c(N[C@@H]3C[C@H](CO)[C@@H](O)[C@H]3O)n2)cc(OC)c1 : 2.00

log10(concentration at 6 h) in this record for Cc1nc(N[C@H](C)c2ccccc2OC(F)(F)F)nc(N[C@@H]2C[C@H](CO)[C@@H](O)[C@H]2O)c1-c1nc2cnccc2s1 : 2.70

Moving on to the next molecule.
log10(concentration at 6 h) in this record for Cc1nc(N(C)Cc2ccccc2)nc(N[C@@H]2C[C@H](CO)[C@@H](O)[C@H]2O)c1-c1nc2cnccc2s1 : 2.00
